Here, each record is paired with measured Bliss excess data.
Tested on: OC-314 (Ovarian Carcinoma)
ASSAY_METHOD_TEXT: Bliss excess, mean over the matrix (fraction); higher = more synergy

COMPOUND: CC1(C)CCC(CN2CCN(c3ccc(C(=O)NS(=O)(=O)c4ccc(NCC5CCOCC5)c([N+](=O)[O-])c4)c(Oc4cnc5[nH]ccc5c4)c3)CC2)=C(c2ccc(Cl)cc2)C1 [Venetoclax] + Cn1cnc2c(F)c(Nc3ccc(Br)cc3Cl)c(C(=O)NOCCO)cc21 [Selumetinib] (first compound max 1 µM, 7x7, partner max 3 µM)
Bliss excess: -0.0214
--
COMPOUND: Cc1c2c(nn1C)CSCc1cc(n(C)n1)CSc1cc(c3ccccc3c1)OCCCc1c(C(=O)O)n(C)c3c-2c(Cl)ccc13 [AZD5991] + C[C@@H](Nc1cc(F)cc(F)c1)c1cc(C(=O)N(C)C)cc2c(=O)cc(N3CCOCC3)oc12 [AZD8186] (first compound max 1 µM, 7x7, partner max 3 µM)
Bliss excess: -0.0029

* * *

Tested on: SW1116 (Colorectal Carcinoma)
ASSAY_METHOD_TEXT: combination Emax (second highest fraction inhibited in the dose matrix, 72 h); higher = more inhibition; extreme values may be limits of the assay
Note: every record was labeled by where its combination Emax sits among low end (below 0.2), middle (0.2 to below 0.4), high end (0.4 or more)

COMPOUND: Cc1c2c(nn1C)CSCc1cc(n(C)n1)CSc1cc(c3ccccc3c1)OCCCc1c(C(=O)O)n(C)c3c-2c(Cl)ccc13 [AZD5991] + C1CN(CCC1(C(=O)N[C@@H](CCO)C2=CC=C(C=C2)Cl)N)C3=NC=NC4=C3C=CN4 [Capivasertib] (first compound max 1 µM, 7x7, partner max 3 µM)
LABEL_CLASS: low end

COMPOUND: N#Cc1cnc(Nc2cc(NC[C@H]3CNCCO3)c(C(F)(F)F)cn2)cn1 [SRA737] + CCc1c2c(nc3ccc(O)cc13)-c1cc3c(c(=O)n1C2)COC(=O)[C@]3(O)CC [SN-38] (first compound max 10 µM, 7x7, partner max 0.3 µM)
LABEL_CLASS: high end

COMPOUND: CN(CCO)CC[C@H](CSc1ccccc1)Nc1ccc(S(=O)(=O)NC(=O)c2ccc(N3CCC([C@@H](O)c4ccccc4-c4ccc(Cl)cc4)CC3)cc2)cc1S(=O)(=O)C(F)(F)F [AZD4320] + Cc1cc2ncnn2cc1Nc1ncc2c(n1)n(C1CCOCC1)c(=O)n2C [AZD7648] (first compound max 1 µM, 7x7, partner max 10 µM)
LABEL_CLASS: low end

COMPOUND: COc1cccc(OCCCN)c1-c1cc(Nc2cnc(C#N)cn2)n[nH]1 [Prexasertib] + Cc1cc2ncnn2cc1Nc1ncc2c(n1)n(C1CCOCC1)c(=O)n2C [AZD7648] (first compound max 1 µM, 7x7, partner max 10 µM)
LABEL_CLASS: high end

COMPOUND: CN(CCO)CC[C@H](CSc1ccccc1)Nc1ccc(S(=O)(=O)NC(=O)c2ccc(N3CCC([C@@H](O)c4ccccc4-c4ccc(Cl)cc4)CC3)cc2)cc1S(=O)(=O)C(F)(F)F [AZD4320] + CS(=O)(=O)CCNCc1ccc(-c2ccc3ncnc(Nc4ccc(OCc5cccc(F)c5)c(Cl)c4)c3c2)o1 [Lapatinib] (first compound max 1 µM, 7x7, partner max 10 µM)
LABEL_CLASS: high end

COMPOUND: CN(CCO)CC[C@H](CSc1ccccc1)Nc1ccc(S(=O)(=O)NC(=O)c2ccc(N3CCC([C@@H](O)c4ccccc4-c4ccc(Cl)cc4)CC3)cc2)cc1S(=O)(=O)C(F)(F)F [AZD4320] + Nc1ccn([C@@H]2O[C@H](CO)[C@@H](O)C2(F)F)c(=O)n1 [Gemcitabine] (first compound max 1 µM, 7x7, partner max 0.3 µM)
LABEL_CLASS: low end

COMPOUND: Cc1c2c(nn1C)CSCc1cc(n(C)n1)CSc1cc(c3ccccc3c1)OCCCc1c(C(=O)O)n(C)c3c-2c(Cl)ccc13 [AZD5991] + CC1(C)CCC(CN2CCN(c3ccc(C(=O)NS(=O)(=O)c4ccc(NCC5CCOCC5)c([N+](=O)[O-])c4)c(Oc4cnc5[nH]ccc5c4)c3)CC2)=C(c2ccc(Cl)cc2)C1 [Venetoclax] (first compound max 1 µM, 7x7, partner max 1 µM)
LABEL_CLASS: low end

COMPOUND: C=CCn1c(=O)c2cnc(Nc3ccc(N4CCN(C)CC4)cc3)nc2n1-c1cccc(C(C)(C)O)n1 [AZD1775] + CCc1c2c(nc3ccc(O)cc13)-c1cc3c(c(=O)n1C2)COC(=O)[C@]3(O)CC [SN-38] (first compound max 1 µM, partner max 0.3 µM)
LABEL_CLASS: high end

COMPOUND: Cn1cnc2c(F)c(Nc3ccc(Br)cc3Cl)c(C(=O)NOCCO)cc21 [Selumetinib] + C[C@@H]1COCCN1C2=NC(=NC(=C2)C3(CC3)[S@](=N)(=O)C)C4=C5C=CNC5=NC=C4 [AZD6738] (first compound max 10 µM, 7x7, partner max 10 µM)
LABEL_CLASS: high end

COMPOUND: CC1(C)CCC(CN2CCN(c3ccc(C(=O)NS(=O)(=O)c4ccc(NCC5CCOCC5)c([N+](=O)[O-])c4)c(Oc4cnc5[nH]ccc5c4)c3)CC2)=C(c2ccc(Cl)cc2)C1 [Venetoclax] + C=CCn1c(=O)c2cnc(Nc3ccc(N4CCN(C)CC4)cc3)nc2n1-c1cccc(C(C)(C)O)n1 [AZD1775] (first compound max 1 µM, partner max 1 µM)
LABEL_CLASS: middle

COMPOUND: N#Cc1cnc(Nc2cc(NC[C@H]3CNCCO3)c(C(F)(F)F)cn2)cn1 [SRA737] + O=c1[nH]cc(F)c(=O)[nH]1 [5-Fluorouracil] (first compound max 10 µM, 7x7, partner max 20 µM)
LABEL_CLASS: low end

COMPOUND: CCN(CCO)CCCOc1ccc2c(Nc3cc(CC(=O)Nc4cccc(F)c4)[nH]n3)ncnc2c1 [AZD2811] + C[C@@H]1COCCN1C2=NC(=NC(=C2)C3(CC3)[S@](=N)(=O)C)C4=C5C=CNC5=NC=C4 [AZD6738] (first compound max 1 µM, 7x7, partner max 10 µM)
LABEL_CLASS: middle

* * *

Tested on: CAL-51 (Breast Carcinoma)
ASSAY_METHOD_TEXT: Bliss excess, mean over the matrix (fraction); higher = more synergy
# maps each entry to its Bliss excess
ENDPOINT_LABEL: Bliss excess

COMPOUND: C[C@@H](c1ccc2nccn2c1)n1nnc2ncc(-c3cnn(C)c3)nc21 [Savolitinib] + CN(CC[C@H](CSC1=CC=CC=C1)NC2=C(C=C(C=C2)S(=O)(=O)NC(=O)C3=CC=C(C=C3)N4CCC(CC4)[C@H](C5=CC=CC=C5C6=CC=C(C=C6)Cl)O)S(=O)(=O)C(F)(F)F)CCO [AZD4320] (first compound max 1 µM, 7x7, partner max 1 µM)
RESULT_VALUE: -0.0375
//
COMPOUND: C=CCn1c(=O)c2cnc(Nc3ccc(N4CCN(C)CC4)cc3)nc2n1-c1cccc(C(C)(C)O)n1 [AZD1775] + O=C(c1cc(Cc2n[nH]c(=O)c3ccccc23)ccc1F)N1CCN(C(=O)C2CC2)CC1 [Olaparib] (first compound max 1 µM, partner max 10 µM)
RESULT_VALUE: -0.0122
//
COMPOUND: Cc1cc2ncnn2cc1Nc1ncc2c(n1)n(C1CCOCC1)c(=O)n2C [AZD7648] + O=C(c1cc(Cc2n[nH]c(=O)c3ccccc23)ccc1F)N1CCN(C(=O)C2CC2)CC1 [Olaparib] (first compound max 10 µM, 7x7, partner max 10 µM)
RESULT_VALUE: -0.0214
//
COMPOUND: CN(C)CCCOc1ccc(-c2ccc3ncc4c(c3c2)n(C2CCOCC2)c(=O)n4C)cn1 [AZD0156] + C=CCn1c(=O)c2cnc(Nc3ccc(N4CCN(C)CC4)cc3)nc2n1-c1cccc(C(C)(C)O)n1 [AZD1775] (first compound max 1 µM, partner max 1 µM)
RESULT_VALUE: -0.0303

* * *

Tested on: EN (Endometrial Carcinoma)
ASSAY_METHOD_TEXT: Bliss excess, mean over the matrix (fraction); higher = more synergy
A collection of molecules and their measured Bliss excess
ENDPOINT_LABEL: Bliss excess

MOLECULE: COc1nnc2ccc(N3CCC(c4ccc(OCCN5CCN(C)C(=O)[C@H]5C)cc4)CC3)nn12 [AZD5153] + CCN(CCO)CCCOc1ccc2c(Nc3cc(CC(=O)Nc4cccc(F)c4)[nH]n3)ncnc2c1 [AZD2811] (first compound max 1 µM, 7x7, partner max 1 µM)
ENDPOINT_LABEL: Bliss excess
RESULT_VALUE: -0.0918
--
MOLECULE: Cc1c2c(nn1C)CSCc1cc(n(C)n1)CSc1cc(c3ccccc3c1)OCCCc1c(C(=O)O)n(C)c3c-2c(Cl)ccc13 [AZD5991] + CC(=O)O[C@H]1C(=O)[C@@]2(C)[C@H]([C@H](OC(=O)c3ccccc3)[C@]3(O)C[C@H](OC(=O)[C@H](O)[C@@H](NC(=O)c4ccccc4)c4ccccc4)C(C)=C1C3(C)C)[C@]1(OC(C)=O)CO[C@@H]1C[C@@H]2O [Paclitaxel] (first compound max 1 µM, 7x7, partner max 3 µM)
ENDPOINT_LABEL: Bliss excess
RESULT_VALUE: 0.149
--
MOLECULE: COc1cccc(OCCCN)c1-c1cc(Nc2cnc(C#N)cn2)n[nH]1 [Prexasertib] + O=C(c1cc(Cc2n[nH]c(=O)c3ccccc23)ccc1F)N1CCN(C(=O)C2CC2)CC1 [Olaparib] (first compound max 1 µM, 7x7, partner max 10 µM)
ENDPOINT_LABEL: Bliss excess
RESULT_VALUE: -0.0336
--
MOLECULE: COc1cccc(OCCCN)c1-c1cc(Nc2cnc(C#N)cn2)n[nH]1 [Prexasertib] + CCc1c2c(nc3ccc(O)cc13)-c1cc3c(c(=O)n1C2)COC(=O)[C@]3(O)CC [SN-38] (first compound max 1 µM, 7x7, partner max 0.3 µM)
ENDPOINT_LABEL: Bliss excess
RESULT_VALUE: 0.0282
--
MOLECULE: Cc1c2c(nn1C)CSCc1cc(n(C)n1)CSc1cc(c3ccccc3c1)OCCCc1c(C(=O)O)n(C)c3c-2c(Cl)ccc13 [AZD5991] + CS(=O)(=O)CCNCc1ccc(-c2ccc3ncnc(Nc4ccc(OCc5cccc(F)c5)c(Cl)c4)c3c2)o1 [Lapatinib] (first compound max 1 µM, 7x7, partner max 10 µM)
ENDPOINT_LABEL: Bliss excess
RESULT_VALUE: -0.0129
--
MOLECULE: COc1cccc(OCCCN)c1-c1cc(Nc2cnc(C#N)cn2)n[nH]1 [Prexasertib] + CN(C)CCCOc1ccc(-c2ccc3ncc4c(c3c2)n(C2CCOCC2)c(=O)n4C)cn1 [AZD0156] (first compound max 1 µM, 7x7, partner max 1 µM)
ENDPOINT_LABEL: Bliss excess
RESULT_VALUE: -0.0459
--
MOLECULE: C[C@@H]1COCCN1c1cc(C2([S@](C)(=N)=O)CC2)nc(-c2ccnc3[nH]ccc23)n1 [AZD6738] + C1CC(C1)(C(=O)[O-])C(=O)[O-].N.N.[Pt+2] [Carboplatin] (first compound max 10 µM, 7x7, partner max 10 µM)
ENDPOINT_LABEL: Bliss excess
RESULT_VALUE: -0.0335
--
MOLECULE: NC1(C(=O)N[C@@H](CCO)c2ccc(Cl)cc2)CCN(c2ncnc3[nH]ccc23)CC1 [Capivasertib] + CCN(CCO)CCCOc1ccc2c(Nc3cc(CC(=O)Nc4cccc(F)c4)[nH]n3)ncnc2c1 [AZD2811] (first compound max 10 µM, 7x7, partner max 1 µM)
ENDPOINT_LABEL: Bliss excess
RESULT_VALUE: -0.0464
--
MOLECULE: CN(CCO)CC[C@H](CSc1ccccc1)Nc1ccc(S(=O)(=O)NC(=O)c2ccc(N3CCC([C@@H](O)c4ccccc4-c4ccc(Cl)cc4)CC3)cc2)cc1S(=O)(=O)C(F)(F)F [AZD4320] + Cc1cc2ncnn2cc1Nc1ncc2c(n1)n(C1CCOCC1)c(=O)n2C [AZD7648] (first compound max 1 µM, 7x7, partner max 10 µM)
ENDPOINT_LABEL: Bliss excess
RESULT_VALUE: -0.01
--
MOLECULE: COc1cc2c(cc1OCCCCCOc1cc3c(cc1OC)C(=O)N1C=C(C)C[C@H]1C=N3)N=C[C@@H]1CC(C)=CN1C2=O [SG3199] + O=C(c1cc(Cc2n[nH]c(=O)c3ccccc23)ccc1F)N1CCN(C(=O)C2CC2)CC1 [Olaparib] (first compound max 0.001 µM, 7x7, partner max 10 µM)
ENDPOINT_LABEL: Bliss excess
RESULT_VALUE: -0.0456
--
MOLECULE: Cc1cc2ncnn2cc1Nc1ncc2c(n1)n(C1CCOCC1)c(=O)n2C [AZD7648] + CCN(CCO)CCCOc1ccc2c(Nc3cc(CC(=O)Nc4cccc(F)c4)[nH]n3)ncnc2c1 [AZD2811] (first compound max 10 µM, 7x7, partner max 1 µM)
ENDPOINT_LABEL: Bliss excess
RESULT_VALUE: -0.0671
--
MOLECULE: Cn1cnc2c(F)c(Nc3ccc(Br)cc3Cl)c(C(=O)NOCCO)cc21 [Selumetinib] + CC(C)n1c(=O)n(C)c2cnc3cc(F)c(-c4ccc(OCCCN5CCCCC5)nc4)cc3c21 [AZD1390] (first compound max 10 µM, 7x7, partner max 0.3 µM)
ENDPOINT_LABEL: Bliss excess
RESULT_VALUE: -0.0086
--
MOLECULE: C[C@@H](c1ccc2nccn2c1)n1nnc2ncc(-c3cnn(C)c3)nc21 [Savolitinib] + CC1(C)CCC(CN2CCN(c3ccc(C(=O)NS(=O)(=O)c4ccc(NCC5CCOCC5)c([N+](=O)[O-])c4)c(Oc4cnc5[nH]ccc5c4)c3)CC2)=C(c2ccc(Cl)cc2)C1 [Venetoclax] (first compound max 1 µM, 7x7, partner max 1 µM)
ENDPOINT_LABEL: Bliss excess
RESULT_VALUE: -0.0643
--
MOLECULE: CCN(CCO)CCCOc1ccc2c(Nc3cc(CC(=O)Nc4cccc(F)c4)[nH]n3)ncnc2c1 [AZD2811] + O=C(c1cc(Cc2n[nH]c(=O)c3ccccc23)ccc1F)N1CCN(C(=O)C2CC2)CC1 [Olaparib] (first compound max 1 µM, 7x7, partner max 10 µM)
ENDPOINT_LABEL: Bliss excess
RESULT_VALUE: -0.0657
